Some compounds, each annotated with its measured CC50 at 72 h.
- assayProcedure: Cytotoxicity against human HepG2 cells after 72 hrs by MTT assay
- Type: cell-based
- assaySetup: HepG2 cells
Numeric only. Scale: µM

Here are 3 compounds together with their reported answers.
[[record]]
compound = "O=c1cc(C#CCCO)c2cccc([N+](=O)[O-])c2[nH]1"
measure = "CC50 at 72 h"
recordedmeasurement = 15.9

[[record]]
compound = "CCC(O)CC#Cc1cc(=O)[nH]c2c([N+](=O)[O-])cccc12 (stereo unspecified)"
measure = "CC50 at 72 h"
recordedmeasurement = 3.8

[[record]]
compound = "COc1ccc(-c2cc(=O)[nH]c3c([N+](=O)[O-])cccc23)cc1"
measure = "CC50 at 72 h"
recordedmeasurement = 37.1


--- query ---
IN: What measured CC50 at 72 h goes with `O=c1cc(-c2cccnc2)c2cccc([N+](=O)[O-])c2[nH]1` ?
OUT: 10.1
